Each record here notes measured clearance.
- Test Method Notes: Pharmacokinetic test in mice (low dose)
- Format: in vivo, Balb/c mice
- Test Context: Balb/c, mouse, in vivo, iv, 2 mg/kg
Recorded Endpoint: clearance (mL/min/kg)

> print(dat)
                                   compound  reported
1  CC(C)NC(=O)c1ccc2c(Oc3ccc(C(F)(F)F)cc3)cccc2c1 [Comparative compound B1, reference compound]      70.8
2  CNS(=O)(=O)c1ccc2c(Oc3ccc(C(F)(F)F)cc3)cccc2c1 [Comparative compound B2, reference compound]      6.03

----------
- Test Method Notes: Pharmacokinetic test in mice (low dose)
- Format: in vivo, Balb/c mice
- Test Context: mouse, in vivo; mice, PO 10 mg/kg; read-out: Cmax
Hi, to clarify the labels: Satisfied covers Cmax from 9 µM upward, Not satisfied covers anything below 9 µM.

> print(dat)
                                   compound    class.label
1  CP(C)(=O)c1cnc(Oc2ccc(C(F)(F)F)cc2)c(-c2cn3c(n2)CCC3)c1 [Example 9]      Satisfied
2  CP(C)(=O)c1cnc(Nc2ccc(C(F)(F)F)cc2)c(-c2cn3c(n2)CCC3)c1 [Example 22]  Not satisfied
3  Cn1cnc(-c2cc(P(C)(C)=O)cnc2Nc2ccc(C(F)(F)F)cc2)c1 [Example 8]      Satisfied
4  Cc1ccc(Oc2ccc(C(F)(F)F)cc2)c2ccc(P(C)(C)=O)cc12 [Example 24]  Not satisfied
5  CP(C)(=O)c1ccc2c(Oc3ccc(C(F)(F)F)cc3)cccc2c1 [Example 7]      Satisfied
6  CP(C)(=O)c1ccc2c(c1)c1ccccc1n2-c1ccc(C(F)(F)F)cc1 [Example 1]      Satisfied
7  Cn1cc2c3cc(P(C)(C)=O)ccc3n(-c3ccc(C(F)(F)F)cc3)c2n1 [Example 16]  Not satisfied
8  Cn1cnc(-c2cc(P(C)(C)=O)ccc2Nc2ccc(C(F)(F)F)cc2)c1 [Example 14]  Not satisfied

----------
- Test Method Notes: Pharmacokinetic test in mice (low dose)
- Format: in vivo, Balb/c mice
- Test Context: mouse, plasma; mice, IV 2 mg/kg; read-out: AUClast
Each record is given y if its reported AUC(0-t) is strictly below 50 µM·h. Records at or above 50 µM·h are given n.

> print(dat)
                                smiles.repr  class.label
1  CP(C)(=O)c1ccc2c(c1)c1cccnc1n2-c1ccc(C(F)(F)F)cc1            y
2  CP(C)(=O)c1ccc(Nc2ccc(C(F)(F)F)cc2)c(-c2ncccn2)c1            n
3  CP(C)(=O)c1ccc2c(c1)c1ncccc1n2-c1ccc(C(F)(F)F)cc1            y
4  CP(C)(=O)c1ccc(Nc2ccc(C(F)(F)F)cc2)c(-c2ccccn2)c1            n

----------
// reported AUC(0-t) per item
- Test Method Notes: Pharmacokinetic test in mice (low dose)
- Type: in vivo, Balb/c mice
- Test Context: Balb/c, mouse, in vivo, iv, 2 mg/kg
Recorded Endpoint: AUC(0-t) (µM·h)

> print(dat)
                                   compound  reported
1  CC(C)NC(=O)c1ccc2c(Oc3ccc(C(F)(F)F)cc3)cccc2c1 [Comparative compound B1, reference compound]      1.24
2  CNS(=O)(=O)c1ccc2c(Oc3ccc(C(F)(F)F)cc3)cccc2c1 [Comparative compound B2, reference compound]      8.75
